Attribute: % Cells Positive
Biological target: T1, Ovr110 (amino acids 1-282; Ovr110 Construct 1 without the 6-His tag) expressed on transiently transfected … (human, UniProt Q7Z7D3 25-282)
T1 construct: signal peptide not removed here
T1 sequence: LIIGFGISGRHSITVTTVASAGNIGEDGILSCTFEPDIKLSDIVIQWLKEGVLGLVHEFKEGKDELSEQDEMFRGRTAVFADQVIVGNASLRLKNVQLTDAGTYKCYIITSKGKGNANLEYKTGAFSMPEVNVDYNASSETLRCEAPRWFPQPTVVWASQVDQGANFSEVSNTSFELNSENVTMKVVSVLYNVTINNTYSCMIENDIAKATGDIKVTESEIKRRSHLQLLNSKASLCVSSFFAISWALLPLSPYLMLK
Assay: flow cytometry; hybridoma supernatant; Ovr110-transfected 293F cells
The reply should be a number in %, with the unit left off.

Entry under review: Ovr110.Q11 (antibody, V domains shown, Mouse hybridoma MAb; also called Q11.12.3; Ovr110.Q11.12.3) VH: DVQLQESGPGLVKPSQSLSLTCSVTGYSITSGYFWSWIRQFPGNKLEWMGFISYDGTNSYNPSLKNRISITRDTSKNQFFLRLNSVTKEDTATYYCARKLLWLRFDYWGQGTTLTVSS VL: ENVLTQSPAIMSASPGEKVTMTCSASSSVSYMHWYQQKSSTSPKLWIYDTSKLASGVPGRFSGSGSGNSYSLTISSMEAEDVATYYCFQGSGYPFTFGSGTKLEIKR . Reported % Cells Positive?
95.7

Try the binder Ovr110.Q19 (antibody, IgG1, V domains shown, Mouse hybridoma MAb; also called Q19.6; Ovr110.Q19.6) VH: DVLLQESGPGLVKASQSLSLTCSVTGYSITSGYFWNWIRQFPGNKLEWMGYISYDGGNSYNPSLKNRISITRDTSKNQFFLRMKSVTAEDTATYYCARKALWLRFDYWGQGTTLTVSS VL: EIVLTQSPAIMSVYLGEKVTMTCSASLSVSYMHWYQQKSSTSPKLWIYDTSKVASGVPGRFSGSGSGNSYSLTISSMEAEDVATYYCFQGSGYPFTFGSGTKLEIKR
95.7

Try the binder Ovr110.Q27 (antibody, IgG1, V domains shown, Mouse hybridoma MAb; also called Q27.4; Q27.2) VH: QVQPQQSGAELARPGASVKLSCKASGYTFTTYWMQWVKQRPGQGLEWIGAIYPGDGDTRYTQKFKGKATLTADKSSSTAYMQLSSLASEDSAVYYCAINWGYAMDYWGQGTSVTVSS VL: DIVLTQSHKIMSTSVGDRVSITCKASQDVRTAVAWYQQKPGQSPKLLIKSASYRYTGVPDRFSGSGSGTDFTFTISSVQAEDLAVYYCQQHYSNPTFGGGTKLEIKR
91.8
